Origin of values: paper PMC10254530

Tested on: L-02 cells
Test: CCK-8 cytotoxicity assay, normal liver L-02
Format: cell-based
Details: Homo sapiens, L02; CCK-8, 48 h, normal liver cells, mean ± SD of three experiments; read-out: IC50 L-02
ATTRIBUTE_MEASURED: pIC50
Scale: pIC50 equals -log10([C]), with [C] in mol/L.

Report pIC50 for CC(=O)O[C@H]1C(=O)[C@@]2(C)[C@H]([C@H](OC(=O)c3ccccc3)[C@]3(O)C[C@H](OC(=O)[C@H](O)[C@@H](NC(=O)c4ccccc4)c4ccccc4)C(C)=C1C3(C)C)[C@]1(OC(C)=O)CO[C@@H]1C[C@@H]2O [paclitaxel, reference compound] please.
6.89

---

System: A549 cells
Experiment: CCK-8 antiproliferative assay, A549
Assay type: cell-based
Conditions: Homo sapiens, A549; CCK-8, 48 h, mean ± SD of three experiments; read-out: IC50 A549
ATTRIBUTE_MEASURED: IC50
Write your answer as a measured quantity: the number, then the unit.

C[C@H]1CCC/C=C/[C@@H]2C[C@H](OC(=O)/C=C\C(=O)OCCOCCOC(=O)c3ccc(N=C=S)cc3)C[C@H]2[C@H](OC(=O)/C=C\C(=O)OCCOCCOC(=O)c2ccc(N=C=S)cc2)/C=C/C(=O)O1    23.8 µM
C[C@H]1CCC/C=C/[C@@H]2C[C@H](O)C[C@H]2[C@H](OC(=O)CCC(=O)OCC#CCOC(=O)c2ccc(N=C=S)cc2)/C=C/C(=O)O1    13.2 µM

// moving on: another record for IC50
Using the record for CC(=O)O[C@H]1C(=O)[C@@]2(C)[C@H]([C@H](OC(=O)c3ccccc3)[C@]3(O)C[C@H](OC(=O)[C@H](O)[C@@H](NC(=O)c4ccccc4)c4ccccc4)C(C)=C1C3(C)C)[C@]1(OC(C)=O)CO[C@@H]1C[C@@H]2O [paclitaxel, reference compound] , report its IC50.
0.014 µM

---

Parameter: IC50. Scope: all listed entries.
Tested on: L-02 cells
Test: CCK-8 cytotoxicity assay, normal liver L-02
Type: cell-based
Conditions: Homo sapiens, L02; CCK-8, 48 h, normal liver cells, mean ± SD of three experiments; read-out: IC50 L-02
Write the answer as a number in µM, unit excluded.

Sample records with IC50:
C[C@H]1CCC/C=C/[C@@H]2C[C@H](O)C[C@H]2[C@H](OC(=O)/C=C\C(=O)OCCOCCOC(=O)c2ccc(N=C=S)cc2)/C=C/C(=O)O1 [Compound 9j]    10.8
C[C@H]1CCC/C=C/[C@@H]2C[C@H](O)C[C@H]2[C@H](OC(=O)CCC(=O)OCCCCOC(=O)c2ccc(N=C=S)cc2)/C=C/C(=O)O1 [Compound 9b]    10.6
C[C@H]1CCC/C=C/[C@@H]2C[C@H](O)C[C@H]2[C@H](O)/C=C/C(=O)O1 [BFA, Brefeldin A]    0.094
C[C@H]1CCC/C=C/[C@@H]2C[C@H](O)C[C@H]2[C@H](OC(=O)/C=C\C(=O)OCCOC(=O)c2ccc(N=C=S)cc2)/C=C/C(=O)O1 [Compound 9g]    20.9
C[C@H]1CCC/C=C/[C@@H]2C[C@H](O)C[C@H]2[C@H](OC(=O)CCC(=O)OCCOC(=O)c2ccc(N=C=S)cc2)/C=C/C(=O)O1 [Compound 9a]    15.5

GET /values?readout=IC50&item= C[C@H]1CCC/C=C/[C@@H]2C[C@H](O)C[C@H]2[C@H](OC(=O)CCC(=O)OCC#CCOC(=O)c2ccc(N=C=S)cc2)/C=C/C(=O)O1 [Compound 9c]
17.4

Reported IC50, molecule C[C@H]1CCC/C=C/[C@@H]2C[C@H](OC(=O)/C=C\C(=O)OCCOCCOC(=O)c3ccc(N=C=S)cc3)C[C@H]2[C@H](OC(=O)/C=C\C(=O)OCCOCCOC(=O)c2ccc(N=C=S)cc2)/C=C/C(=O)O1 [Compound 8j] : ____
21.3

Field request: IC50 | item: C[C@H]1CCC/C=C/[C@@H]2C[C@H](O)C[C@H]2[C@H](OC(=O)CCC(=O)OCCOCCOC(=O)c2ccc(N=C=S)cc2)/C=C/C(=O)O1 [Compound 9d]
9.18
